Examples of compounds with documented IC50 follow.
# Test system: microfilariae of Dirofilaria immitis
# test details: Dirofilaria immitis, Microfilaria (DiMF) Assay
# Format: cell-based
# condition label: read-out: D. immitis activity level (IC50 or MED)

// below: answered compounds
>>> measured_value("CC(C)Oc1ccc(-c2nsc(Nc3ncccc3N(C)C)n2)nc1 [Compound 56]")
"200 to 500 nM"
>>> measured_value("FC(F)(F)c1cncc(Nc2nc(-c3ccccn3)ns2)c1 [Cmpd 3]")
"500 to 5000 nM"
>>> measured_value("CC(C)c1cnc(Nc2nc(-c3ccc(OC4CC4)cn3)ns2)cc1C(F)(F)F [Compound 95]")
"< 200 nM"

Please give the measured IC50 for this compound: CC(=O)N(C)c1cc(C(F)(F)F)cnc1Nc1nc(-c2cc(C(F)(F)F)c(OC(C)C)cn2)ns1 [Compound 268]
< 200 nM

Please give the measured IC50 for this compound: Cc1cccnc1Nc1nc(-c2ccc(OC3CCOCC3)cn2)no1 [Compound 16]
500 to 5000 nM

Cited source: patent US11505548B2
